Blocking ratio at 66.7 nM (%) for assorted binders
# Assayed Target: T1, human LAG3 ECD recombinant protein (plate coated, tag not stated) (human, UniProt P18627 23-450)
# T1 construct: extracellular domain
# T1 sequence (looked up): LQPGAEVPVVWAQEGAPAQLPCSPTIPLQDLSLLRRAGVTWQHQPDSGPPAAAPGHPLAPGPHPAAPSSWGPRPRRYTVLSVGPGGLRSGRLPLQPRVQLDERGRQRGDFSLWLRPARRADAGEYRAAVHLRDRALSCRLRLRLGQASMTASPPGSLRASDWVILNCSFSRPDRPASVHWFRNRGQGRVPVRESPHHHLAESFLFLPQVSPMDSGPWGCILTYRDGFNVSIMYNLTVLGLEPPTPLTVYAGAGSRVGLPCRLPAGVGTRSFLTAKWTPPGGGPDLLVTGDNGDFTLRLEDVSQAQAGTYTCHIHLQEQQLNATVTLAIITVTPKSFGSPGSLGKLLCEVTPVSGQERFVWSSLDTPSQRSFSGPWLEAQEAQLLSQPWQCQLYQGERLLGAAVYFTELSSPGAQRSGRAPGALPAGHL
# Procedure Text: competitive ELISA format I: His-FGL1 binding to coated LAG3 ECD
Be sure to follow the number with its unit.

Some binders with known Blocking ratio at 66.7 nM (%) results, for comparison:
* 048c (antibody, human IgG4, V domains shown, human IgG4 S228P / kappa chimeric antibody; also called chimeric antibody 048; not shown: human kappa light chain constant region (pcDNA3.4-hIgGk vector)) VH: EFQVQQSGPELVKPGASVKISCKASGYSFSDYNMNWLKQSTGKSLEWIGLVDPIYGTIRYNQKFKGKATLTVDQSSSTAYMQLNSLTSEDSAVYYCALITTSVRYFDYWGQGTTLTVSS VL: DVLMTQTPLSLPVSLGDQASISCRSSQNIVHTDGNTYLEWYLQKPGQSPKLLIYKVSNRFSGVPDRFSGSGSGTDFTLKISRVEAEDLGVYYCFQGSHVPPTFGGGTKLEIK | 41.2%
* 024c (antibody, human IgG4, V domains shown, human IgG4 S228P / kappa chimeric antibody; also called chimeric antibody 024; not shown: human kappa light chain constant region (pcDNA3.4-hIgGk vector)) VH: EVQLQQSGPELVKPGASVKISCKASGYTFTDYYMNWVKQSHGKRLEWIGDIDPNNGGTSYNQKFKGKATLTVDKSSSSAYMDLRSLTSEDSAVYYCARAGSYYYGSSYVEYFDVWGTGTTVTVSS VL: DIQMTQSPASLSASVGETVTITCRASGNIHNYLAWYQQKQGASPQLLVYNAKTLADGVPSRFSGSGSGTEFSLKINSLQPEDFGNYYCQHFWNTPYTFGGGTKLEIK | 39.4%

Turning to the following binder.
Recorded Blocking ratio at 66.7 nM (%) (binder 029c (antibody, human IgG4, V domains shown, human IgG4 S228P / kappa chimeric antibody; also called chimeric antibody 029; not shown: human kappa light chain constant region (pcDNA3.4-hIgGk vector)) VH: DVKLVESGEDLVKPGGSLKLSCAASGFTFSSYAMSWVRQTPEKRLEWVAYVTSGGDYIYYADTVKGRFTISRDDVRNTLYLQMSSLKSEDTAMYYCTRVAYDYEWYFDVWGTGAPVTVSS VL: DIVMTQSHKFMSTSVGDRVSITCKASQDVTTAVAWYQQKPGQSPKLLIYSASYRYTGVSDRFTGSGSGTDFTFTISSVQAEDLALYYCQQHDSSPWTFGGGTKLEIK ): 62.6%
